- Assay text: gradient 5% acetonitrile 3 min, to 50% in 2 min, to 85% in 15 min, held 3 min, 100 µL/min
- Assay setup: column: Zorbax Extend-C18 2.1 x 50 mm; eluents: water / acetonitrile, 0.1% formic acid
Measured attribute: RP-LC retention time (s)

| Molecule | Measured attribute | Endpoint result |
| --- | --- | --- |
| COc1ccc2c(C)c(CCC(=O)N3CCC(C(N)=O)CC3)c(=O)oc2c1 | RP-LC retention time | 645 |
| CCOc1ccc(NC(=O)C2=C(C)NC(=O)NC2c2ccc([N+](=O)[O-])cc2)cc1 (stereo not given) | RP-LC retention time | 695 |
| COc1cc(NC(=O)Cn2ccnc2-c2ccnc(N3CCOCC3)c2)cc(OC)c1 | RP-LC retention time | 625 |

P: CCn1c(SCC(=O)Nc2nc(-c3ccc(C)cc3)cs2)nnc1-c1cc2ccccc2o1
Q: CCc1nc2c(=O)n(CC(=O)N(CC)Cc3ccccc3)nc(C)c2s1
# min-compare on RP-LC retention time between P and Q Output the label that corresponds to your choice.
Q
(Q: 740 s, P: 1140 s)
